# system: 4'-phosphopantetheinyl transferase ffp (Bacillus subtilis)
# test.details: qHTS Assay for Inhibitors of Bacillus subtilis Sfp phosphopantetheinyl transferase (PPTase);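 further: the enzyme is Sfp with the accession as filed and its product quenches rhodamine fluorescence; 0% = enzyme reaction without inhibitor and -100% = no enzyme wells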
# setup.conditions: Biochemical Sfp PPTase activity
# Source text: Assay Submitter: Michael Burkart, University of California, San Diego Screening Center PI: Austin, C.P. Screening Center: NIH Chemical Genomics Center [NCGC] […] In search of small molecule Sfp-PPTase inhibitors, a fluorescence quenching assay was developed for detection of Bacillus subtilis Sfp-PPTase enzymatic activity in a miniaturized high-throughput format. […]
Out of some 310,000 compounds screened, about 11,000 (3.5%) were called active. Another 4% or so got no clear call; they are omitted. Many of the other results were omitted from the sample, so actives are more common in it than they were.
value.type: largest response in the series, negative = inhibition (%)
One number for each entry, in %.

Previously resolved entries follow.
[
  {
    "compound": "CCc1c(C)sc(NC(=O)c2ccc(Br)o2)c1C(=O)OC",
    "measured.value": -4.91
  },
  {
    "compound": "COc1ccccc1C(=O)NC(=S)Nc1ccccc1N1CCCCC1",
    "measured.value": 5.21
  },
  {
    "compound": "O=C(c1ccc(Cl)cc1)c1cnc(Nc2ccccc2)s1",
    "measured.value": -3.35
  }
]

Dear colleague, could you send me largest response in the series, negative = inhibition for each of the items below? Thanks.
1. COc1ccc(OC)c(C(c2nnnn2C(C)(C)C)N2CCc3ccccc3C2)c1 (stereo not given)
2. Cc1ccc(-n2c(SCC(=O)NCCC3=CCCCC3)nc3n[nH]c(C)c3c2=N)cc1Cl
3. O=C(CN1CCCCCC1)Nc1ccc(Br)cc1[N+](=O)[O-]
4. N#CCc1ccc(NC(=O)c2ccccc2C(=O)Nc2ccc(CC#N)cc2)cc1

Reply text:
1. 6.02
2. 14.5
3. -3.46
4. 5.96

Provide largest response in the series, negative = inhibition values for the following items, in order.
1. COc1ccc(-c2oc3ncnc(NCCCO)c3c2-c2ccc(OC)cc2)cc1
2. CC(=O)Nc1cccc(C(=O)OCN2C(=O)c3ccccc3C2=O)c1
3. COc1ccc(N(C(=O)c2snc(C(N)=O)c2N)C(C(=O)NC2CCCC2)c2ccc(C)o2)c(OC)c1 (stereo not given)

Reply text:
-12.6
7.23
-2.29

----------
# system: 4'-phosphopantetheinyl transferase ffp (Bacillus subtilis)
# test.details: qHTS Assay for Inhibitors of Bacillus subtilis Sfp phosphopantetheinyl transferase (PPTase);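 further: the enzyme is Sfp with the accession as filed and its product quenches rhodamine fluorescence; 0% = enzyme reaction without inhibitor and -100% = no enzyme wells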
# setup.conditions: Biochemical Sfp PPTase activity
The whole screen tested about 310,000 compounds, of which about 11,000 (3.5%) were called active. Not shown: some 4% with an inconclusive outcome. This is one part of a sample in which actives are shown more often than they occur.
Please mark criterion met if the recorded largest response in the series, negative = inhibition is equal to or greater than 10%, and criterion not met if it falls below.

[
  {
    "compound": "Cc1c(CC(=O)N2CCN(C(=O)C3COc4ccccc4O3)CC2)c(=O)oc2c(O)c(O)ccc12 (centres undefined)",
    "class.label": "criterion not met"
  },
  {
    "compound": "CCCN(CCc1ccccc1)C1CCc2c(O)cccc2C1 (centres undefined)",
    "class.label": "criterion met"
  },
  {
    "compound": "Cc1ccc(NC(=O)c2cc(-c3ccccc3O)n[nH]2)cc1C",
    "class.label": "criterion met"
  },
  {
    "compound": "CC[C@H](C)[C@H](NC(=O)[C@H](Cc1ccc(O)cc1)NC(=O)[C@@H](NC(=O)[C@H](CCCN=C(N)N)NC(=O)[C@@H](N)CC(=O)O)C(C)C)C(=O)N[C@@H](Cc1cnc[nH]1)C(=O)N1CCC[C@H]1C(=O)N[C@@H](Cc1ccccc1)C(=O)O",
    "class.label": "criterion not met"
  },
  {
    "compound": "COc1cc(OC)cc(C(=O)Nc2nnc(SCC(=O)NCC3CCCO3)s2)c1 (centres undefined)",
    "class.label": "criterion not met"
  },
  {
    "compound": "Cc1ccc(-c2nc3ccccc3[nH]c2=O)cc1",
    "class.label": "criterion not met"
  }
]

Inquiry: Exam item: decide whether the reported largest response in the series, negative = inhibition for `CC(=O)NCC(=O)N1CCC(n2nccc2NC(=O)CCCc2ccccc2)CC1` is at least 10%.
Reply text: criterion met

Inquiry: Quick check: does COc1ccccc1NC(=O)C(C)OC(=O)CC1CCCC1 (centres undefined) have largest response in the series, negative = inhibition greater than or equal to 10%?
Reply text: criterion met

Inquiry: Entry `CCOc1ccc2nc(NCCNC(=O)C(C)(C)C)c(C)cc2c1` : is its largest response in the series, negative = inhibition no less than 10%?
Reply text: criterion met

Recorded values, source PubChem BioAssay AID1490.
